assay: an = ratio of the nth substance listed; details: 338.15 K; 101 kPa; Liquid; Alternating current cell with electrodes; a2 = 3
measured_parameter: electrical conductivity (S/m)

1) CCC[N+](CCC)(CCC)Cc1ccccc1.[Cl-] [benzyltripropylammonium chloride] + CC(O)C(=O)O :: 0.035

(I) CCC[N+](CCC)(CCC)Cc1ccccc1.[Cl-] [benzyltripropylammonium chloride] + Oc1ccccc1
(II) CCC[N+](CCC)(CCC)Cc1ccccc1.[Cl-] [benzyltripropylammonium chloride] + OCCO
(III) CCC[N+](CCC)(CCC)Cc1ccccc1.[Cl-] [benzyltripropylammonium chloride] + OCC(O)CO
Output the entries ranked by electrical conductivity from maximum down to minimum. When ranking, write the labels in the order the request describes. II, I, III

----------
assay: refractive index (Na D-line) (dimensionless); an = ratio of the nth substance listed; conditions: 338.15 K; 101 kPa; Liquid; Standard Abbe refractometry; a2 = 3
measured_parameter: refractive index

1) CCC[N+](CCC)(CCC)Cc1ccccc1.[Cl-] [benzyltripropylammonium chloride] + Oc1ccccc1 :: 1.5334
2) CCC[N+](CCC)(CCC)Cc1ccccc1.[Cl-] [benzyltripropylammonium chloride] + OCCO :: 1.4849
3) CCC[N+](CCC)(CCC)Cc1ccccc1.[Cl-] [benzyltripropylammonium chloride] + CC(O)C(=O)O :: 1.4791
4) CCC[N+](CCC)(CCC)Cc1ccccc1.[Cl-] [benzyltripropylammonium chloride] + OCC(O)CO :: 1.4922

----------
assay: an = ratio of the nth substance listed; conditions: 308.15 K; 101 kPa; Liquid; Alternating current cell with electrodes; a2 = 3
measured_parameter: electrical conductivity (S/m)

# example entries with known answers
1) CCC[N+](CCC)(CCC)Cc1ccccc1.[Cl-] [benzyltripropylammonium chloride] + CC(O)C(=O)O :: 0.0047
2) CCC[N+](CCC)(CCC)Cc1ccccc1.[Cl-] [benzyltripropylammonium chloride] + Oc1ccccc1 :: 0.0523

(A) CCC[N+](CCC)(CCC)Cc1ccccc1.[Cl-] [benzyltripropylammonium chloride] + OCC(O)CO
(B) CCC[N+](CCC)(CCC)Cc1ccccc1.[Cl-] [benzyltripropylammonium chloride] + OCCO
Compare A and B by numeric electrical conductivity and name the larger one. Give the label under which the chosen entry appears. B

----------
assay: an = ratio of the nth substance listed; conditions: 333.15 K; 101 kPa; Liquid; Falling or rolling sphere viscometry; a2 = 3
measured_parameter: viscosity (mPa·s)

Use the examples below as a reference point.
1. CCC[N+](CCC)(CCC)Cc1ccccc1.[Cl-] [benzyltripropylammonium chloride] + Oc1ccccc1 :: 32.6
2. CCC[N+](CCC)(CCC)Cc1ccccc1.[Cl-] [benzyltripropylammonium chloride] + OCC(O)CO :: 180.1

(I) CCC[N+](CCC)(CCC)Cc1ccccc1.[Cl-] [benzyltripropylammonium chloride] + CC(O)C(=O)O
(II) CCC[N+](CCC)(CCC)Cc1ccccc1.[Cl-] [benzyltripropylammonium chloride] + OCCO
Pick one: I or II . Which has the bigger viscosity number? Write down the label attached to your selection. I
(I: 150.6 mPa·s, II: 33.5 mPa·s)

----------
assay: refractive index (Na D-line) (dimensionless); an = ratio of the nth substance listed; conditions: 318.15 K; 101 kPa; Liquid; Standard Abbe refractometry; a2 = 3
measured_parameter: refractive index

1. CCC[N+](CCC)(CCC)Cc1ccccc1.[Cl-] [benzyltripropylammonium chloride] + CC(O)C(=O)O :: 1.4858
2. CCC[N+](CCC)(CCC)Cc1ccccc1.[Cl-] [benzyltripropylammonium chloride] + OCCO :: 1.4911
3. CCC[N+](CCC)(CCC)Cc1ccccc1.[Cl-] [benzyltripropylammonium chloride] + OCC(O)CO :: 1.4982
4. CCC[N+](CCC)(CCC)Cc1ccccc1.[Cl-] [benzyltripropylammonium chloride] + Oc1ccccc1 :: 1.5403

----------
test: an = ratio of the nth substance listed; details: 308.15 K; 101 kPa; Liquid; Vibrating tube method; a2 = 3
measured_parameter: mass density (kg/m3)

1. CCC[N+](CCC)(CCC)Cc1ccccc1.[Cl-] [benzyltripropylammonium chloride] + Oc1ccccc1 :: 1050.47
2. CCC[N+](CCC)(CCC)Cc1ccccc1.[Cl-] [benzyltripropylammonium chloride] + OCC(O)CO :: 1123.81
3. CCC[N+](CCC)(CCC)Cc1ccccc1.[Cl-] [benzyltripropylammonium chloride] + CC(O)C(=O)O :: 1109.92
4. CCC[N+](CCC)(CCC)Cc1ccccc1.[Cl-] [benzyltripropylammonium chloride] + OCCO :: 1054.44

----------
assay: an = ratio of the nth substance listed; conditions: 303.15 K; 101 kPa; Liquid; Alternating current cell with electrodes; a2 = 3
measured_parameter: electrical conductivity (S/m)

(a) CCC[N+](CCC)(CCC)Cc1ccccc1.[Cl-] [benzyltripropylammonium chloride] + OCCO
(b) CCC[N+](CCC)(CCC)Cc1ccccc1.[Cl-] [benzyltripropylammonium chloride] + CC(O)C(=O)O
For a and b , which recorded electrical conductivity is lower? Mark your selection by writing its label. b
(b: 0.003 S/m, a: 0.105 S/m)

(1) CCC[N+](CCC)(CCC)Cc1ccccc1.[Cl-] [benzyltripropylammonium chloride] + Oc1ccccc1
(2) CCC[N+](CCC)(CCC)Cc1ccccc1.[Cl-] [benzyltripropylammonium chloride] + OCC(O)CO
Choose between 1 and 2 : whose measured electrical conductivity value is numerically larger? Indicate your choice by writing its label. 1
(1: 0.0397 S/m, 2: 0.0117 S/m)

----------
assay: refractive index (Na D-line) (dimensionless); an = ratio of the nth substance listed; details: 303.15 K; 101 kPa; Liquid; Standard Abbe refractometry; a2 = 3
measured_parameter: refractive index

1) CCC[N+](CCC)(CCC)Cc1ccccc1.[Cl-] [benzyltripropylammonium chloride] + OCC(O)CO :: 1.5026
2) CCC[N+](CCC)(CCC)Cc1ccccc1.[Cl-] [benzyltripropylammonium chloride] + CC(O)C(=O)O :: 1.4908
3) CCC[N+](CCC)(CCC)Cc1ccccc1.[Cl-] [benzyltripropylammonium chloride] + OCCO :: 1.4952
4) CCC[N+](CCC)(CCC)Cc1ccccc1.[Cl-] [benzyltripropylammonium chloride] + Oc1ccccc1 :: 1.5452

----------
experiment: an = ratio of the nth substance listed; conditions: 298.15 K; 101 kPa; Liquid; Alternating current cell with electrodes; a2 = 3
measured_parameter: electrical conductivity (S/m)

Below: 2 compounds and their reported electrical conductivity.
1) CCC[N+](CCC)(CCC)Cc1ccccc1.[Cl-] [benzyltripropylammonium chloride] + OCCO :: 0.0883
2) CCC[N+](CCC)(CCC)Cc1ccccc1.[Cl-] [benzyltripropylammonium chloride] + CC(O)C(=O)O :: 0.0018

(P) CCC[N+](CCC)(CCC)Cc1ccccc1.[Cl-] [benzyltripropylammonium chloride] + OCC(O)CO
(Q) CCC[N+](CCC)(CCC)Cc1ccccc1.[Cl-] [benzyltripropylammonium chloride] + Oc1ccccc1
I need your help: which of the pair P , Q has higher electrical conductivity? Respond with the label that goes with your answer. Q

----------
test: an = ratio of the nth substance listed; conditions: 323.15 K; 101 kPa; Liquid; Alternating current cell with electrodes; a2 = 3
measured_parameter: electrical conductivity (S/m)

(I) CCC[N+](CCC)(CCC)Cc1ccccc1.[Cl-] [benzyltripropylammonium chloride] + OCC(O)CO
(II) CCC[N+](CCC)(CCC)Cc1ccccc1.[Cl-] [benzyltripropylammonium chloride] + CC(O)C(=O)O
(III) CCC[N+](CCC)(CCC)Cc1ccccc1.[Cl-] [benzyltripropylammonium chloride] + OCCO
(IV) CCC[N+](CCC)(CCC)Cc1ccccc1.[Cl-] [benzyltripropylammonium chloride] + Oc1ccccc1
Please rank these compounds by electrical conductivity in descending order. Put the labels in the requested order and list them out. III, IV, I, II
(III: 0.2 S/m, IV: 0.0999 S/m, I: 0.0374 S/m, II: 0.0146 S/m)

----------
test: an = ratio of the nth substance listed; settings: 313.15 K; 101 kPa; Liquid; Alternating current cell with electrodes; a2 = 3
measured_parameter: electrical conductivity (S/m)

For orientation, consider the following solved cases.
1) CCC[N+](CCC)(CCC)Cc1ccccc1.[Cl-] [benzyltripropylammonium chloride] + Oc1ccccc1 :: 0.0669
2) CCC[N+](CCC)(CCC)Cc1ccccc1.[Cl-] [benzyltripropylammonium chloride] + OCC(O)CO :: 0.022

(P) CCC[N+](CCC)(CCC)Cc1ccccc1.[Cl-] [benzyltripropylammonium chloride] + OCCO
(Q) CCC[N+](CCC)(CCC)Cc1ccccc1.[Cl-] [benzyltripropylammonium chloride] + CC(O)C(=O)O
Select one. Lower electrical conductivity: P or Q Refer to your chosen item by its label in the answer. Q
(Q: 0.0071 S/m, P: 0.146 S/m)

----------
assay: an = ratio of the nth substance listed; conditions: 293.15 K; 101 kPa; Liquid; Sing-around technique in a fixed-path interferometer; a2 = 3
measured_parameter: speed of sound (m/s)

1. CCC[N+](CCC)(CCC)Cc1ccccc1.[Cl-] [benzyltripropylammonium chloride] + OCCO :: 1762.4
2. CCC[N+](CCC)(CCC)Cc1ccccc1.[Cl-] [benzyltripropylammonium chloride] + OCC(O)CO :: 1898.3
3. CCC[N+](CCC)(CCC)Cc1ccccc1.[Cl-] [benzyltripropylammonium chloride] + CC(O)C(=O)O :: 1658.2
4. CCC[N+](CCC)(CCC)Cc1ccccc1.[Cl-] [benzyltripropylammonium chloride] + Oc1ccccc1 :: 1699.7
